Form field: OD450 nm (one value per entry).
- test system: monkey GPC3-His protein (monkey)
- experimental details: ELISA, monkey GPC3-His coated; antibody 2.67 nM
Answer using only a numeral; do not append any unit.

hAb006LH3L1 (antibody, human IgG1, V domains shown) VH: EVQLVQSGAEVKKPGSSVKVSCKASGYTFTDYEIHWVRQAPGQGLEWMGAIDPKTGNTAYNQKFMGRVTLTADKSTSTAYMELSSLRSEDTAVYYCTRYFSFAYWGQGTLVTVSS VL: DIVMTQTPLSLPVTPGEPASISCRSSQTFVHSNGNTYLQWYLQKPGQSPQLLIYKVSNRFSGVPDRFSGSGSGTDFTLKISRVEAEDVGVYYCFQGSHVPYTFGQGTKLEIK; 2.36
hAb003LH3L1a (antibody, human IgG1, V domains shown) VH: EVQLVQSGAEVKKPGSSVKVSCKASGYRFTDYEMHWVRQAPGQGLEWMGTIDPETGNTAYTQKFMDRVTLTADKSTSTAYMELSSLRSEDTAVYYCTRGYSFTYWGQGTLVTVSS VL: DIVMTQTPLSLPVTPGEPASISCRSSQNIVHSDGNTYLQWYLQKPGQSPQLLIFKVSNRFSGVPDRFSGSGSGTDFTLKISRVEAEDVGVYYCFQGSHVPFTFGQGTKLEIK; 2.38

Data request, read-out OD450 nm, for hAb007LH3L1b (antibody, human IgG1, V domains shown) VH: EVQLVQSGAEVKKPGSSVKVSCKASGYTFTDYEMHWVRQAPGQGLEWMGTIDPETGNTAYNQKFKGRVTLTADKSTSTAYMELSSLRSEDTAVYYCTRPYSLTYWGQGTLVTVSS VL: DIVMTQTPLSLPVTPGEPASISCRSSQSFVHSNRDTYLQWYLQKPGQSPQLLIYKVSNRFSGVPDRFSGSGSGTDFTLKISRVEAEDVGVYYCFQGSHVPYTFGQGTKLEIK
2.37
